# EC50 of receptor-mediated cAMP synthesis annotations
Biological target: T1, human GIPR (human, UniProt P48546 22-466)
T1 sequence (looked up): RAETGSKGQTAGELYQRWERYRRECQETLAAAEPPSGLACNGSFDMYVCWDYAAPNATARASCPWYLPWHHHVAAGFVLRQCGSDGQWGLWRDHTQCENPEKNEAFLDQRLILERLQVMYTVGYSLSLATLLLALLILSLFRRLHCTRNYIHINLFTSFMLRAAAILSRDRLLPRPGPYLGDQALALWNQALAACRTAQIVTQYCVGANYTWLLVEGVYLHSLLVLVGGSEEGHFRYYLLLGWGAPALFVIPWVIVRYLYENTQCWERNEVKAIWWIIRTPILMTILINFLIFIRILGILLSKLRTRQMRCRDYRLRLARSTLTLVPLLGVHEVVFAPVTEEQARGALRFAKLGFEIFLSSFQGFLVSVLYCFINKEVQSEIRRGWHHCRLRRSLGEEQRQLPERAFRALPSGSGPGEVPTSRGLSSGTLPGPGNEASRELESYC
Assay: cell-based or functional assay
Bridge positions count the residues as written; N and C are the ends. Square brackets hold non-standard residues; d marks the D form. Ends that are not written are not given here. C20L5A = not defined here; L5A = not defined here; Aib = CC(C)(N)C(=O)O
Quick reminder: number only, in nM, skip the unit.

// worked examples, EC50 of receptor-mediated cAMP synthesis included
YXEGTFTSDYSIYCDKQAAXCFVNWLLAGGPSSGAPPPS (Aib at positions 2 and 20; C-terminal amide (NH2); staple L5A attached at Cys14 and Cys21) [mCMC759 (C(14-21)-L5A)] : 0.03
YXEGTFTSDYSIYKDKQAAXKFVNWLLAGGPSSGAPPPS (Aib at positions 2 and 20; C-terminal amide (NH2); staple K4 attached at Lys14 and Lys21) [mCMD307 (2050-K4)] : 0.01
Y[Aib]EGTFTSDYSIYLDKCAA[Aib]EFVCWLLAGGPSSGAPPPS-NH2 (linker 17-24 via C20L5A; reading uncertain) [C(17-24)-C20L5A] : 0.05
Y[Aib]EGTFTSDYSIYLDKCAQ[Aib]AFVCWLIAQGPSSGAPPPS-NH2 (linker 17-24 via C20L5A; reading uncertain) [19Q, 21A, 27I, 29Q, C(17-24) - C20L5A] : 0.02

### Prompt Report EC50 of receptor-mediated cAMP synthesis, nothing else, for this binder: Y[Aib]EGTFTSDYSIYLDKCAA[Aib]EFVCWLLAGGPSSGAPPPS-NH2 (linker 17-24 via L5A; reading uncertain) [C(17-24)-L5A]
### Response 0.05

The measured values listed here are drawn from patent US20240148884A1.
